- measurement target: purified recombinant human PDE5 (Homo sapiens, UniProt O76074)
- experiment: in vitro PDE5 inhibition assay measuring GMP production from cGMP (HPLC-UV-MS)
- Assay type: biochemical
- condition parameters: relative to icariin
Quick reference for Fold improved potency (fold change in IC50 compared to icariin) among some molecules
Enter your answer as a number in fold; do not include the unit.

Known results for molecules:
- molecule: "COc1ccc(-c2oc3c(CC=C(C)C)c(O)cc(O)c3c(=O)c2OCCO)cc1 [Compound 6, 3-O-(2-Hydroxyethyl)-Icaritin]"
  val: 15
- molecule: "COc1ccc(-c2oc3c(CC=C(C)C)c(OC4OC(CO)C(O)C(O)C4O)cc(O)c3c(=O)c2OCC(C)O)cc1 (stereo not drawn) [Compound 5, 3-O-(2-Hydroxypropyl)-Icariside I]"
  val: 12

Okay, next one:
Ask: What value of Fold improved potency (fold change in IC50 compared to icariin) has been recorded for this entry: COc1ccc(-c2oc3c(CC=C(C)C)c(O)cc(O)c3c(=O)c2O)cc1
Result: 3

* * *

- measurement target: recombinant human PDE5 (Homo sapiens, UniProt O76074)
- experiment: in vitro PDE5 kinetics assay (nonlinear regression, AICc model comparison)
attribute measured: pKi
Scale for pKi: -log10 of concentration given in mol/L; no unit attached.

Ask: Requested read-out: pKi. Entry: COc1ccc(-c2oc3c(CC=C(C)C)c(O)cc(O)c3c(=O)c2OCCCO)cc1 [Compound 7, 3-O-(3-Hydroxypropyl)-Icaritin]
Result: 7.44

* * *

# Lookup of reported Fold improved potency (fold change in IC50 compared to icariin) keyed by entry
- measurement target: purified recombinant human PDE5 (Homo sapiens, UniProt O76074)
- experiment: in vitro PDE5 inhibition assay measuring GMP production from cGMP (HPLC-UV-MS)
- Format: biochemical
- condition parameters: relative to icariin
Enter your answer as a number in fold; do not include the unit.

- molecule: "COc1ccc(-c2oc3c(CC=C(C)C)c(O)cc(O)c3c(=O)c2OCC(C)O)cc1 (stereo not drawn) [Compound 8, 3-O-(2-Hydroxypropyl)-Icaritin]"
  val: 4
- molecule: "COc1ccc(-c2oc3c(CC=C(C)C)c(OC4OC(CO)C(O)C(O)C4O)cc(O)c3c(=O)c2OCCCO)cc1 (stereo not drawn) [Compound 4, 3-O-(3-Hydroxypropyl)-Icariside I]"
  val: 8

Continue with the next molecule.
Ask: Need Fold improved potency (fold change in IC50 compared to icariin) of COc1ccc(-c2oc3c(CC=C(C)C)c(O[C@@H]4O[C@H](CO)[C@@H](O)[C@H](O)[C@H]4O)cc(O)c3c(=O)c2O)cc1 [Compound 2, Icariside I] , thanks.
Result: 3

* * *

- experiment: mitochondrial viability assay with resazurin
- Type: cell-based, human
- condition parameters: human, marked reduction in at least one cell line, 0.01–10 μM
attribute measured: viability at 3 days

Sample records with viability at 3 days:
- compound: "COc1ccc(-c2oc3c(CC=C(C)C)c(O)cc(O)c3c(=O)c2OCCO)cc1 [Compound 6, 3-O-(2-Hydroxyethyl)-Icaritin]"
  viability at 3 days: "≤ 70%"
- compound: "COc1ccc(-c2oc3c(CC=C(C)C)c(O[C@@H]4O[C@H](CO)[C@@H](O)[C@H](O)[C@H]4O)cc(O)c3c(=O)c2O)cc1 [Compound 2, Icariside I]"
  viability at 3 days: "≤ 70%"

// below: viability at 3 days requested for another compound
Ask: State the recorded viability at 3 days for this entry: COc1ccc(-c2oc3c(CC=C(C)C)c(OC4OC(CO)C(O)C(O)C4O)cc(O)c3c(=O)c2OCCCO)cc1 (stereo not drawn) [Compound 4, 3-O-(3-Hydroxypropyl)-Icariside I]
Result: ≤ 70%

* * *

- measurement target: purified recombinant human PDE5 (Homo sapiens, UniProt O76074)
- experiment: in vitro PDE5 inhibition assay measuring GMP production from cGMP (HPLC-UV-MS)
- Format: biochemical
# key: entry, value: IC50
// units = µM; emit number, no label

- structure smiles: "COc1ccc(-c2oc3c(CC=C(C)C)c(O[C@@H]4O[C@H](CO)[C@@H](O)[C@H](O)[C@H]4O)cc(O)c3c(=O)c2O[C@@H]2O[C@@H](C)[C@H](O)[C@@H](O)[C@H]2O)cc1"
  IC50, µM: 6

Ask: Looking for the measured IC50 of COc1ccc(-c2oc3c(CC=C(C)C)c(O)cc(O)c3c(=O)c2O)cc1 , can you help?
Result: 1.8

* * *

- measurement target: purified recombinant human PDE5 (Homo sapiens)
- experiment: in vitro PDE5 inhibition assay measuring GMP production from cGMP (HPLC-UV-MS)
- Format: biochemical
- condition parameters: 1 nM PDE5 catalytic domain, 0.3 μM cGMP, 25 °C, 15 min; mean of at least three replicates ± SEM; read-out: IC50
The reader will find reported IC50 values listed item by item below.
Numeric only. Scale: µM

- compound: "COc1ccc(-c2oc3c(CC=C(C)C)c(O)cc(O)c3c(=O)c2OCCO)cc1 [Compound 6, 3-O-(2-Hydroxyethyl)-Icaritin]"
  IC50 / µM: 0.4

Ask: Fill blank: measured IC50 of the compound COc1ccc(-c2oc3c(CC=C(C)C)c(O[C@@H]4O[C@H](CO)[C@@H](O)[C@H](O)[C@H]4O)cc(O)c3c(=O)c2O)cc1 [Compound 2, Icariside I] is ____.
Result: 2.1

Ask: Suppose we examine the compound COc1ccc(-c2oc3c(CC=C(C)C)c(OC4OC(CO)C(O)C(O)C4O)cc(O)c3c(=O)c2OCCCO)cc1 (stereo not drawn) [Compound 4, 3-O-(3-Hydroxypropyl)-Icariside I] ; what IC50 value has been reported?
Result: 0.8
